The reported measurements were obtained from patent US8383637B2.

# target: β-secretase(BACE) (Homo sapiens)
# Construct: purchased Panvera
# procedure-summary: BACE FS1% Inhibition Assay
# Assay type: biochemical
# experimental-context: 10 μM test compound; FS1 substrate; read-out: % Inhibition (FS) 10 μM
# Description: BACE FS1% Inhibition Assay The following reagents were used in this assay: sodium acetate, PEG8000 (Sigma), DMSO, HEPES, FS1 substrate [[…]] […] The FS1-substrate stock solution was prepared in DMSO as a 10 mg/mL solution. The FS1-substrate working solution was prepared by diluting the 10 mg/mL stock solution with substrate assay buffer to a final concentration of 300 μg/mL. […] For test compounds, % inhibition was determined at each concentration as follows: [formula]
value-kind: inhibition at 10 µM (%)
Numbers only, in %.

>  <compound>
CC(C)C(=O)NCCN1Cc2cc(Oc3ccccc3)ccc2N=C1N [Compound 121]

>  <inhibition at 10 µM / %>
117

$$$$
>  <compound>
CN(C(=O)CCCCN1Cc2cc(Oc3cccc(NS(=O)(=O)c4ccccc4)c3)ccc2N=C1N)C1CCCCC1 [Compound 114]

>  <inhibition at 10 µM / %>
126

$$$$
>  <compound>
CCCC(CCCC(=O)N(C)C1CCCCC1)N1Cc2cc(Oc3ccccc3)ccc2N=C1N (centres unmarked) [Compound 90]

>  <inhibition at 10 µM / %>
124

$$$$

Give inhibition at 10 µM for all compounds that follow.
1. NC1=Nc2ccc(Oc3ccccc3)cc2CN1CCNC(=O)C12CC3CC(CC(C3)C1)C2 [Compound 131]
2. NC1=Nc2ccc(Oc3ccccc3)cc2CN1CCNC(=O)c1ccccc1 [Compound 154]
3. CCCC(CCCC(=O)NC1CCCCCC1)N1Cc2cc(Oc3ccccc3)ccc2N=C1N (centres unmarked) [Compound 137]
4. CC(C)(C)C(=O)NCCN1Cc2cc(Oc3ccccc3)ccc2N=C1N [Compound 141]

Reply:
130
79
107
102

Task item: Param readout= inhibition at 10 µM; system= β-secretase(BACE) (Homo sapiens); entry= CCCC(CCC(=O)NC1CCCCC1)N1Cc2cc(Oc3ccccc3)ccc2N=C1N (centres unmarked) [Compound 129] ; returns value.
Reply: 113

###

# target: β-secretase(BACE) (Homo sapiens, UniProt P56817)
# Construct: purchased Panvera
# Sequence (P56817 46-501): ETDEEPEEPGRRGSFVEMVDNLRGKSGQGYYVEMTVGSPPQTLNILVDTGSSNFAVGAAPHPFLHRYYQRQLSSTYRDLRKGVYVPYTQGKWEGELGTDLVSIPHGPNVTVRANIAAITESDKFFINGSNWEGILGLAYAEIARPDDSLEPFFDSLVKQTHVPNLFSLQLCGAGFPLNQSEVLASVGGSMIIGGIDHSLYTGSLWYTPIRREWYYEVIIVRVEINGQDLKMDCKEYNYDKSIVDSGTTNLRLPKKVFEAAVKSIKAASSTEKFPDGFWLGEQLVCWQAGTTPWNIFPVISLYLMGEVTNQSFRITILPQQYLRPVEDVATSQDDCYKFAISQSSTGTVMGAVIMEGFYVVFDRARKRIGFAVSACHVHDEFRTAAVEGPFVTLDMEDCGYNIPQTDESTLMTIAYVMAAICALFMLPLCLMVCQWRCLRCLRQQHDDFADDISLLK
# procedure-summary: BACE Assay-1 (MCA-substrate, IC50)
# Type: biochemical
# experimental-context: procedure of Example 158; read-out: IC50 μM (158)
# Source text: The following standards are reagents were used in this assay: Sodium Citrate trisodium salt dihydrate (Sigma), Citric Acid monohydrate (Merck), PEG8000 (Sigma), MCA-substrate (Bachem), β-secretase (BACE) (Panvera), 96-well plate zwart (Costar (Elscolab)), StatVal (Bachem). […] For test compounds, measured at multiple concentrations, the measured T0 and T60 values were used to calculate an IC50 value using Graphpad Software (or PIR).
For each entry below, report its IC50 value.
Just so you know, I need the unit written after the number.

>  <smiles-structure>
CN(C1CCCCC1)S(=O)(=O)CCN1Cc2cc(C(=O)c3ccccc3)ccc2N=C1N

>  <target>
β-secretase(BACE) (Homo sapiens, UniProt P56817)

>  <value-kind>
IC50

>  <observed-result>
1.4 µM

$$$$
>  <smiles-structure>
CCCN1Cc2cc(Oc3cccc(NS(=O)(=O)c4csc5ccccc45)c3)ccc2N=C1N

>  <target>
β-secretase(BACE) (Homo sapiens, UniProt P56817)

>  <value-kind>
IC50

>  <observed-result>
0.17 µM

$$$$
>  <smiles-structure>
CCCCS(=O)(=O)NCCN1Cc2cc(Oc3ccccc3)ccc2N=C1N

>  <target>
β-secretase(BACE) (Homo sapiens, UniProt P56817)

>  <value-kind>
IC50

>  <observed-result>
0.89 µM

$$$$

Task item: Look up IC50: NC1=Nc2ccc(C(=O)c3ccccc3)cc2CN1CCC(=O)N(C1CCCCC1)C1CCCCC1
Reply: 1.3 µM
